system.tested: F508delCFTR (Homo sapiens, UniProt P13569, DEL508-508)
Construct: expressed in transfected cells; host or cells: CFBE41o- (human lung derived epithelial cell line), doxycycline-inducible expression
Sequence (P13569 with tags, fused parts or gaps DEL508-508): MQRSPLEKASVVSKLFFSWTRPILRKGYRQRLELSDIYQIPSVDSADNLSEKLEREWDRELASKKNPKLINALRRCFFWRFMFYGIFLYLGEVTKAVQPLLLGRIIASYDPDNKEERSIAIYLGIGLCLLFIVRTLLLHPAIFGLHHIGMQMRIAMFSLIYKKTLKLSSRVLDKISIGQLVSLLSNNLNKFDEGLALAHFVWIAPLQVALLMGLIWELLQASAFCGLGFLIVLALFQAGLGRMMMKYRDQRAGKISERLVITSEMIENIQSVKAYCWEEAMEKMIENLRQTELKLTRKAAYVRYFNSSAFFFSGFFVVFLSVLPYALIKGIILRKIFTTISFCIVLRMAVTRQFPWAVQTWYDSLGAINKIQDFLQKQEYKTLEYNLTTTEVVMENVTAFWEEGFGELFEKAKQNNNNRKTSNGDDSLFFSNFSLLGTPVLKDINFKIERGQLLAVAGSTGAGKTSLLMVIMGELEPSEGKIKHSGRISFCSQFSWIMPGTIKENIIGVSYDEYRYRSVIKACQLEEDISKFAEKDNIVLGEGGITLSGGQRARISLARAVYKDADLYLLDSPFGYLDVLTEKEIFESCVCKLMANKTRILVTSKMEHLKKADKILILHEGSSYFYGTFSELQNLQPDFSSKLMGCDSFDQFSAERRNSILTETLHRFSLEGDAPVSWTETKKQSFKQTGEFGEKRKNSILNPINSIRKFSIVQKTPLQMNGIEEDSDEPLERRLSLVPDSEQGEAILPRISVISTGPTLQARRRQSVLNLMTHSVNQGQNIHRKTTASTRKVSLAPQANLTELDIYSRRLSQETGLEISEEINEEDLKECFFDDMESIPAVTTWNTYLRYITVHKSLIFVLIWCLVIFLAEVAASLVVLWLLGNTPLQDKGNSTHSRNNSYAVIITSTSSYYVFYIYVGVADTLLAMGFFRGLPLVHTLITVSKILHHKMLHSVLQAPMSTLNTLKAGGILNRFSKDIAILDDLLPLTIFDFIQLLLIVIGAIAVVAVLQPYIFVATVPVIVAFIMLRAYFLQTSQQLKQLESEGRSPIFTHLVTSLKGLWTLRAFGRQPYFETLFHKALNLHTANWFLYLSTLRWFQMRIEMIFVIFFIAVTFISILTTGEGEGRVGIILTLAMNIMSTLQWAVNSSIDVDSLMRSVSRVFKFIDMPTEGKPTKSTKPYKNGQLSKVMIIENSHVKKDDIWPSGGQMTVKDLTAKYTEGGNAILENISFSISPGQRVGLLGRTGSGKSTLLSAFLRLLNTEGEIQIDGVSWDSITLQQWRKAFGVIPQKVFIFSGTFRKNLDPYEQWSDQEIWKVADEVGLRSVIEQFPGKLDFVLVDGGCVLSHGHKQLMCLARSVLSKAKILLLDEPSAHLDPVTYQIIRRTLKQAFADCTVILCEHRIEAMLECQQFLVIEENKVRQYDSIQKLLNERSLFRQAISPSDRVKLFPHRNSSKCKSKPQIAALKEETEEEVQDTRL
protocol.details: Cell Surface Expression-Horse Radish Peroxidase (CSE-HRP) assay
Type: cell-based
reported.conditions: CFBE41o-F508delCFTR-HRP cells; with co-corrector (2 μM of 3-[(2R,4R)-4-({[1-(2,2-difluoro-1,3-benzodioxol-5-yl)cyclopropyl]carbonyl}amino)-7-methoxy-3,4-dihydro-2H-chromen-2-yl]benzoic acid); read-out: EC50 (with co-corrector)
pEC50: −log10 of the molar value.
measure: pEC50

COc1ncc(C2(C)CC2)cc1CO[C@H]1[C@H](C(C)(C)C)[C@@H](C(=O)O)N(C(=O)C2CCCCC2)[C@H]1c1cccnc1OC(C)C = > 6.00
COc1ccc(C(F)(F)F)cc1COC1[C@@H](c2ccccc2OC)N(C(=O)C2CCCCC2)[C@@H](C(=O)O)[C@@H]1C(C)(C)C (mixture of isomers) = 5.00 to 6.00
COc1cc(OC)nc(OC2[C@@H](c3ccccc3)N(C(=O)N(C(C)C)C(C)C)[C@@H](C(=O)O)[C@@H]2C(C)(C)C)n1 (mixture of isomers) = 5.00 to 6.00
COc1ncc(C(F)(F)F)cc1CO[C@H]1[C@H](C(C)(C)C)[C@@H](C(=O)O)N(C(=O)OC(C)C)[C@H]1c1ccccc1Br = > 6.00

----------
system.tested: F508delCFTR (Homo sapiens, UniProt P13569, DEL508-508)
Construct: expressed in transfected cells; host or cells: CFBE41o- (human lung derived epithelial cell line), doxycycline-inducible expression
protocol.details: Cell Surface Expression-Horse Radish Peroxidase (CSE-HRP) assay;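 on Maximum % activity (without co-corrector): % of on-plate positive control (2 µM of the co-corrector compound) after DMSO subtraction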
Format: cell-based
reported.conditions: CFBE41o-F508delCFTR-HRP cells; without co-corrector; normalized to on-plate positive control; highest concentration 20 μM
measure: Maximum % activity (without co-corrector)

C=CCOC(=O)N1[C@H](C(=O)O)[C@@H](C(C)(C)C)[C@H](OCc2cc(C(F)(F)F)cnc2OC)[C@@H]1c1ccccc1 [Example 90] = + (<100)
COc1ncc(C2CCC2)cc1CO[C@H]1[C@H](C(C)(C)C)[C@@H](C(=O)O)N(C(=O)[C@@H]2CCCCO2)[C@H]1c1ccccc1C1CC1 [Example 171] = +++ (≥200)
CCc1ccccc1[C@H]1[C@@H](OCc2cc3ccccc3nc2OC)[C@H](C(C)(C)C)[C@@H](C(=O)O)N1C(=O)[C@@H]1CCCCO1 [Example 254] = +++ (≥200)
COc1ccc(C(F)(F)F)cc1C(O)CO[C@H]1[C@H](C(C)(C)C)[C@@H](C(=O)O)N(C(=O)[C@@H]2CCCCO2)[C@H]1c1ccccc1C (stereo partly shown) [Example 268] = + (<100)
COc1ncc(C2CCC2)cc1CO[C@H]1[C@H](C(C)(C)C)[C@@H](C(=O)O)N(C(=O)C2CCCCC2)[C@H]1c1ccccc1C(C)C [Example 295] = +++ (≥200)
COc1ncc(-c2ccccc2)cc1CO[C@H]1[C@H](C(C)(C)C)[C@@H](C(=O)O)N(C(=O)C2CCCCC2)[C@H]1c1ccccc1F [Example 52] = + (<100)
COc1nc2ccccc2cc1CO[C@H]1[C@H](C(C)(C)C)[C@@H](C(=O)O)N(C(=O)[C@@H]2CCCCO2)[C@H]1c1ccccc1C [Example 189] = +++ (≥200)
COc1ncc(C2CCC2)cc1CO[C@H]1[C@H](C(C)(C)C)[C@@H](C(=O)O)N(C(=O)OC(C)C)[C@H]1c1cccc(Cl)c1 [Example 142] = + (<100)
COc1ccc(C2(C)CCC2)cc1CO[C@H]1[C@H](C(C)(C)C)[C@@H](C(=O)O)N(C(=O)[C@@H]2CCCCO2)[C@H]1c1ccccc1C [Example 215] = +++ (≥200)

----------
system.tested: F508delCFTR (Homo sapiens, UniProt P13569, DEL508-508)
Construct: expressed in transfected cells; host or cells: CFBE41o- (human lung derived epithelial cell line), doxycycline-inducible expression
protocol.details: Cell Surface Expression-Horse Radish Peroxidase (CSE-HRP) assay;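 on Maximum % activity (with co-corrector): % of on-plate positive control (2 µM of the co-corrector compound) after DMSO subtraction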
Format: cell-based
reported.conditions: CFBE41o-F508delCFTR-HRP cells; with co-corrector (2 μM); normalized to on-plate positive control; highest concentration 20 μM
measure: Maximum % activity (with co-corrector)

COc1ncc(C2(C)CC2)cc1CO[C@H]1[C@H](C(C)(C)C)[C@@H](C(=O)O)N(C(=O)C2CCCCC2)[C@H]1c1cccnc1OC(C)C = +++ (≥350)
C=C(CO[C@H]1[C@H](C(C)(C)C)[C@@H](C(=O)O)N(C(=O)[C@@H]2CCCCO2)[C@H]1c1ccccc1C)c1cc(C(F)(F)F)ccc1OC = +++ (≥350)
COc1ncc(C(F)(F)F)cc1CO[C@H]1[C@H](C(C)(C)C)[C@@H](C(=O)O)N(C(=O)OC(C)C)[C@H]1c1cccc(Cl)c1 = ++ (≥150 and <350)
COc1ccc(Cl)cc1CO[C@@H]1[C@@H](C(C)(C)C)[C@H](C(=O)O)N(C(=O)OC2CCC2)[C@@H]1c1ccccc1 (racemic) = +++ (≥350)
COc1ccc(C(F)(F)F)cc1CO[C@H]1[C@H](C(C)(C)C)[C@@H](C(=O)NS(C)(=O)=O)N(C(=O)C2CCCCC2)[C@H]1c1ccccc1 = ++ (≥150 and <350)
COc1ncc(C2CCC2)cc1CO[C@H]1[C@H](C(C)(C)C)[C@@H](C(=O)O)N(C(=O)[C@@H]2CCCCO2)[C@H]1c1cc(Cl)ccc1C = ++ (≥150 and <350)
COc1ncc(C(C)(C)C)cc1CO[C@H]1[C@H](C(C)(C)C)[C@@H](C(=O)O)N(C(=O)C2CCCCC2)[C@H]1c1cccnc1OC(C)C = +++ (≥350)
CC(C)OC(=O)N1[C@H](C(=O)O)[C@@H](C(C)(C)C)[C@H](OCc2cc(C(F)(F)F)cnc2O)[C@@H]1c1ccccc1 = ++ (≥150 and <350)
COc1ncc(C2CCC2)cc1CO[C@H]1[C@H](C(C)(C)C)[C@@H](C(=O)O)N(C(=O)OC(C)C)[C@H]1c1ccccc1C(C)C = +++ (≥350)
CCS(=O)(=O)NC(=O)[C@@H]1[C@@H](C(C)(C)C)[C@H](OCc2cc(C(F)(F)F)ccc2OC)[C@H](c2ccccc2)N1C(=O)C1CCCCC1 = ++ (≥150 and <350)
COc1ncc(C(F)(F)F)cc1CO[C@H]1[C@H](C(C)(C)C)[C@@H](C(=O)O)N(C(=O)[C@H]2CCCCO2)[C@H]1c1ccccc1Cl = +++ (≥350)
COc1ncc(C(F)(F)F)cc1CO[C@H]1[C@H](C(C)(C)C)[C@@H](C(=O)O)N(C(=O)OC(C)C)[C@H]1c1ccccc1Br = +++ (≥350)

----------
system.tested: F508delCFTR (Homo sapiens, UniProt P13569, DEL508-508)
Construct: expressed in transfected cells; host or cells: CFBE41o- (human lung derived epithelial cell line), doxycycline-inducible expression
protocol.details: Cell Surface Expression-Horse Radish Peroxidase (CSE-HRP) assay;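 on Maximum % activity (with co-corrector): % of on-plate positive control (2 µM of the co-corrector compound) after DMSO subtraction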
Format: cell-based
reported.conditions: CFBE41o-F508delCFTR-HRP cells; with co-corrector (2 μM); normalized to on-plate positive control; highest concentration 20 μM
measure: Maximum % activity (with co-corrector)

COc1cccc(S(=O)(=O)N2[C@H](C(=O)O)[C@@H](C(C)(C)C)[C@H](OCc3cc(C4CCC4)cnc3OC)[C@@H]2c2ccccc2C2CC2)n1 = ++ (≥150 and <350)
COc1ncc(C2CCC2)cc1CO[C@H]1[C@H](C(C)(C)C)[C@@H](C(=O)O)N(C(=O)C2(C(F)(F)F)CC2)[C@H]1c1cccnc1OC(C)C = ++ (≥150 and <350)
COc1ncc(C2CCC2)cc1CO[C@H]1[C@H](C(C)(C)C)[C@@H](C(=O)O)N(C(=O)[C@@H]2CCCO2)[C@H]1c1ccccc1Br = +++ (≥350)
COc1nc2ccccc2cc1CO[C@H]1[C@H](C(C)(C)C)[C@@H](C(=O)O)N(C(=O)OC(C)C)[C@H]1c1ccccc1Br = ++ (≥150 and <350)
COc1ccc(Cl)cc1COC1[C@@H](c2ccccc2)N(C(=O)C2CCCCC2)[C@@H](C(=O)O)[C@@H]1C(C)(C)C (mixture of isomers) = +++ (≥350)
COc1ccc(C(F)(F)F)cc1CO[C@H]1[C@H](C(C)(C)C)[C@@H](C(=O)O)N(C(=O)[C@H]2CCC[C@H](OC)C2)[C@H]1c1ccccc1 = +++ (≥350)

----------
system.tested: F508delCFTR (Homo sapiens, UniProt P13569, DEL508-508)
Construct: expressed in transfected cells; host or cells: CFBE41o- (human lung derived epithelial cell line), doxycycline-inducible expression
protocol.details: Cell Surface Expression-Horse Radish Peroxidase (CSE-HRP) assay;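 on Maximum % activity (with co-corrector): % of on-plate positive control (2 µM of the co-corrector compound) after DMSO subtraction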
Type: cell-based
reported.conditions: CFBE41o-F508delCFTR-HRP cells; with co-corrector (2 μM); normalized to on-plate positive control; highest concentration 20 μM
measure: Maximum % activity (with co-corrector)

COc1ncc(C(F)(F)F)cc1CO[C@@H]1[C@H](C(C)(C)C)[C@@H](C(=O)O)N(C(=O)C2CCCC2)[C@H]1c1cccnc1OC(C)C = + (<150)
COc1ccc(C(F)(F)F)cc1CO[C@H]1[C@H](C(C)(C)C)[C@@H](C(=O)O)N(C(=O)N(C(C)C)C(C)C)[C@H]1c1ccccc1 (single isomer, unassigned) = + (<150)
